- assay-text: Clinical pharmacokinetics of belumosudil
- Type: in vivo, human
- measurement-setup: human, in vivo, oral
endpoint-label: Tmax (h)
State just the number; it will be interpreted in h.

Query string: Fill in Tmax for record CC(C)NC(=O)COc1cccc(-c2nc(Nc3ccc4[nH]ncc4c3)c3ccccc3n2)c1 [Belumosudil]
Result string: 1.26
